B1: TPPP (parent)
chain: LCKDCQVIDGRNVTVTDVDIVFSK

- Variants of: B1
- Test method notes: protein stability index of a GFP-peptide fusion (GPS, HEK-293T) (PSI 1-6); higher = more stable;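 further: lentivirally expressed fusions sorted by FACS into six bins by GFP to DsRed ratio, PSI derived from sequencing read proportions per bin multiplied by bin number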
- Cond: c terminus: a fixed tail appended
Metric name: protein stability index

- LCKDCQEIDGRNVTVTDVDIVFSK [V7E]: 2.94
- LCKICQVIDGRNVTVTDVDIVFSK [D4I]: 2.02
- LCNDCQVIDGRNVTVTDVDIVFSK [K3N]: 2.95
- LCKDCQPIDGRNVTVTDVDIVFSK [V7P]: 2.96
- LCKDCQVIDGRNVTVTDVDIVFST [K24T]: 1.97
- LCKDCQVIDGRNVTDTDVDIVFSK [V15D]: 3.04
- LCKDCQVIDGRNVTVTRVDIVFSK [D17R]: 2.92
- LVKDCQVIDGRNVTVTDVDIVFSK [C2V]: 3.04
- LCKDCQVIDGRNVGVTDVDIVFSK [T14G]: 3.05
- LCKDCQVIDGRNPTVTDVDIVFSK [V13P]: 3.08
